Record form. Attribute: IC50. Fill in for each entry.
molecular target: human Nav1.8 (Homo sapiens, UniProt Q9Y5Y9); test: SyncroPatch384PE assay (automated patch clamp); type: cell-based; conditions: resting state block (P1 measurement), human Nav1.8/b3 CHO cells, read-out: P1 IC50
Sequence (Q9Y5Y9 whole entry): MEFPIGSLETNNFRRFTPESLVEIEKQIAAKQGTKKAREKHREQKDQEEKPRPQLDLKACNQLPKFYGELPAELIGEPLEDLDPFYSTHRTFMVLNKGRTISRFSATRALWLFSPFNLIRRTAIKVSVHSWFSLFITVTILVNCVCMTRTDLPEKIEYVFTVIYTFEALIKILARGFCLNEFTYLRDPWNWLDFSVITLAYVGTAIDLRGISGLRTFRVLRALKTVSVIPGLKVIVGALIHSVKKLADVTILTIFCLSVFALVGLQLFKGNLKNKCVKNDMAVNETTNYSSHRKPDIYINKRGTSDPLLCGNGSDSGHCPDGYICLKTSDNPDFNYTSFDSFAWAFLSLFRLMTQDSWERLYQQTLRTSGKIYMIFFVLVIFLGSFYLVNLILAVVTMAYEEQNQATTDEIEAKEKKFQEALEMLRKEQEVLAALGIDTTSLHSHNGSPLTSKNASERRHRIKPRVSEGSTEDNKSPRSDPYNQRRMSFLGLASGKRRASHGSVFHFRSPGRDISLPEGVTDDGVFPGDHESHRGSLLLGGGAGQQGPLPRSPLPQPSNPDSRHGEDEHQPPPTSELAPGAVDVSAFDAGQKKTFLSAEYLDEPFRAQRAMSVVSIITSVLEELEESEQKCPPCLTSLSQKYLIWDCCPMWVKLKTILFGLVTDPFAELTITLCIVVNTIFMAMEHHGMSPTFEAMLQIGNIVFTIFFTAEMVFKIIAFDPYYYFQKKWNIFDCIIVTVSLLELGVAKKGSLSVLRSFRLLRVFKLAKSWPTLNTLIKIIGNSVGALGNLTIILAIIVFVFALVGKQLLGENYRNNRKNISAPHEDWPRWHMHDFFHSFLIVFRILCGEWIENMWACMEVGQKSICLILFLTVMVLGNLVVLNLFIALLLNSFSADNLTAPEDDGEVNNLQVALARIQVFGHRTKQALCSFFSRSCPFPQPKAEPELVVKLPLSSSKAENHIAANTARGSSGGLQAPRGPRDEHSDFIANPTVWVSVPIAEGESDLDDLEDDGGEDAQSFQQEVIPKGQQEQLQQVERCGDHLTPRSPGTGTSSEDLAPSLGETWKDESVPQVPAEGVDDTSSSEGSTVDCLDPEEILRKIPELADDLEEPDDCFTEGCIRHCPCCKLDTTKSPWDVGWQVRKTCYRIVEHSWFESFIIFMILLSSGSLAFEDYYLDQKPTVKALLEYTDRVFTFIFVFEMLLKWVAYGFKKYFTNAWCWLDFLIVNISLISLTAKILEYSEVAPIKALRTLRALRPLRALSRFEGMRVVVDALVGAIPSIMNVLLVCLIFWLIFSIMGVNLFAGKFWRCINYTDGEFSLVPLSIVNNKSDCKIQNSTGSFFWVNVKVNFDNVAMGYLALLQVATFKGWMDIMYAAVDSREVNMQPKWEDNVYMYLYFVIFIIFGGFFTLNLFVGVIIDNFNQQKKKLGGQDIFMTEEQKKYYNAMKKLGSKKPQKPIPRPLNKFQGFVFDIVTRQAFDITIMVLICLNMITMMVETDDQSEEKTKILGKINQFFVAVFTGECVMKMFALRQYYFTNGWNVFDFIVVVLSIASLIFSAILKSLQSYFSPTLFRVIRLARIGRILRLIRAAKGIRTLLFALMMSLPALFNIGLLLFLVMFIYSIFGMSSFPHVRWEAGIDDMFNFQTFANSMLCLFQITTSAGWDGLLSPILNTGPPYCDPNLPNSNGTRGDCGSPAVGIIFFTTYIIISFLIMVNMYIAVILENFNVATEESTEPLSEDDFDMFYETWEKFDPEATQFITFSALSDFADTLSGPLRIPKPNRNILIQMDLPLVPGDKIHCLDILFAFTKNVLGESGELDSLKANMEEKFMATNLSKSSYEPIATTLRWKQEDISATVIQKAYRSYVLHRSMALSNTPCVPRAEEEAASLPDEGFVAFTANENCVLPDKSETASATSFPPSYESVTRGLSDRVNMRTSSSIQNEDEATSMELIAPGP

Solved entries (count: 8):
molecule=Cc1c(-c2cnn(C(F)(F)F)c2)cnc(N2CCCC(F)(F)CC2)c1C(=O)Nc1cccc([S@](C)(=N)=O)c1 reading="≤ 5 nM"
molecule=O=C(Nc1cc[nH]c(=O)c1)c1nnc(C(F)(F)F)cc1N1CCCC(F)(F)CC1 reading="> 200 nM"
molecule=C[S@@](=N)(=O)c1cccc(NC(=O)c2cc(Cl)c(C(F)(F)F)cc2N2CCO[C@@H](C(F)(F)F)C2)c1 reading="50 to 100 nM"
molecule=Cc1c(C(F)(F)F)nnc(N2CCCC(F)(F)CC2)c1C(=O)Nc1cccc([S@@](C)(=O)=NC(=O)CN)c1 reading="≤ 5 nM"
molecule=Cc1nc(N2CCCC(F)(F)CC2)c(C(=O)Nc2cccc([S@](C)(=N)=O)c2)cc1C(F)(F)F reading="≤ 5 nM"
molecule="CS(=N)(=O)c1cccc(NC(=O)c2nnc(C(F)(F)F)cc2N2CCCC(F)(F)CC2)c1 (stereo not shown)" reading="> 200 nM"
molecule=Cc1c(C#N)nnc(N2CCCC(F)(F)CC2)c1C(=O)Nc1cccc([S@](C)(=N)=O)c1 reading="> 200 nM"
molecule=CS(=O)(=O)c1cccc(NC(=O)c2nnc(C(F)(F)F)cc2N2CCCCCC2)c1 reading="> 200 nM"

For each of the molecules below, note its IC50.
1. Cc1cc(C#N)nc(N2CCCC(F)(F)CC2)c1C(=O)Nc1ccnc([S@](C)(=N)=O)c1
2. Cc1c(C(F)(F)F)nnc(N2CCCC(F)(F)CC2)c1C(=O)Nc1cccc([S@@](C)(=O)=NC(=O)[C@H](C)O)c1
3. Cc1c(-c2ccccc2)nnc(N2CCCC(F)(F)CC2)c1C(=O)Nc1cccc([S@@](C)(=N)=O)c1
4. Cc1ccsc1-c1cnc(N2CCCC(F)(F)CC2)c(C(=O)Nc2cccc(S(C)(=N)=O)c2)c1C (stereo not shown)
5. Cc1ccc(-c2nnc(N3CCCC(F)(F)CC3)c(C(=O)Nc3cccc([S@](C)(=N)=O)c3)c2C)cc1
6. Cc1nc(N2CCNCC2)nc(N2CCCC(F)(F)CC2)c1C(=O)Nc1cccc([S@](C)(=N)=O)c1
7. Cc1cc(C(N)=O)nc(N2CCCC(F)(F)CC2)c1C(=O)Nc1cccc([S@](C)(=N)=O)c1
8. Cc1c(C(=O)Nc2cccc([S@@](C)(=O)=NC(=O)[C@@H](C)O)c2)c(N2CCCC(F)(F)CC2)nc(C(F)(F)F)c1-c1cnn(C)c1

Given back:
1: 5 to 50 nM; 2: ≤ 5 nM; 3: 100 to 200 nM; 4: ≤ 5 nM; 5: 5 to 50 nM; 6: > 200 nM; 7: > 200 nM; 8: ≤ 5 nM

# return IC50 for each item in the list
1. Cc1c(C#N)cnc(N2CCCC(F)(F)CC2)c1C(=O)Nc1cccc(S(C)(=N)=O)c1 (stereo not shown)
2. C[S@@](=N)(=O)c1cccc(NC(=O)c2c(N3CCCC(F)(F)CC3)ncc(Cl)c2F)c1
3. Cc1c(C(F)(F)F)ncc(N2CCCC(F)(F)CC2)c1C(=O)Nc1cccc([S@](C)(=N)=O)c1

Given back:
5 to 50 nM
≤ 5 nM
50 to 100 nM
